Sequence of the target: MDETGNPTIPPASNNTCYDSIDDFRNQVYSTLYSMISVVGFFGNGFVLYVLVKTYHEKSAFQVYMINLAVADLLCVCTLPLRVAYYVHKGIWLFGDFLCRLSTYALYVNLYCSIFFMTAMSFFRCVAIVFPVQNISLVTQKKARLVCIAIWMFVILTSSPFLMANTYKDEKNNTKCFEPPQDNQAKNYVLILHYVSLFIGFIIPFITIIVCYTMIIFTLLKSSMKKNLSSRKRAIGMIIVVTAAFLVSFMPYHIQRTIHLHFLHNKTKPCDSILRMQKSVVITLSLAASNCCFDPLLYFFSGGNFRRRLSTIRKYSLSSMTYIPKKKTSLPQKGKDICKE
pIC50: −log10 of the molar value.
MEASURED_QUANTITY: pIC50

I. CC(C)c1csc(/C=C/c2cc(NC(=O)Cc3ccccc3C(=O)O)ccc2Cl)n1 [Example 17e]
II. CC(C)c1csc(/C=C/c2cccc(NC(=O)Cc3ccccc3C(=O)O)c2)n1 [Example 1]
So which one has the bigger pIC50 here, I or II ? Output the label that corresponds to your choice.
II

Just for reference, patent US5273986A is where these values come from.
